Would you kindly list AUC (% of), CHTX, SUP B-15, 1.0 uM for each of these binders?
# target: CXCR4 receptor (human, UniProt P61073 1-352)
# Sequence (P61073 whole entry): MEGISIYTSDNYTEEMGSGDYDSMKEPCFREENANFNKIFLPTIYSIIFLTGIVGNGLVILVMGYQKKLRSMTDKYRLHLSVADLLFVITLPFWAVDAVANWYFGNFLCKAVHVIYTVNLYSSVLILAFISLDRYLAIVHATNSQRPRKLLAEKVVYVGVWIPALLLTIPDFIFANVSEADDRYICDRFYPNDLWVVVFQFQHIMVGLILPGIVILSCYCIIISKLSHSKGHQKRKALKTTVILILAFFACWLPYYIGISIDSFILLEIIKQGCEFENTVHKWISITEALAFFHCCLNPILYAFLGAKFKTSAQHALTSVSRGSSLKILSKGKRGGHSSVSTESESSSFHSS
# assay_summary: cell-based or functional assay
* marks the point of attachment. Palmitoyl = CCCCCCCCCCCCCCCC(=O)*
Numbers only, in %.

Would you please look over these solved cases?
Palmitoyl-KKLRSMTDKYRLH-NH2 (SMILES CCCCCCCCCCCCCCCC(=O)N[C@@H](CCCCN)C(=O)N[C@@H](CCCCN)C(=O)N[C@@H](CC(C)C)C(=O)N[C@@H](CCCNC(=N)N)C(=O)N[C@@H](CO)C(=O)N[C@@H](CCSC)C(=O)N[C@H](C(=O)N[C@@H](CC(=O)O)C(=O)N[C@@H](CCCCN)C(=O)N[C@@H](Cc1ccc(O)cc1)C(=O)N[C@@H](CCCNC(=N)N)C(=O)N[C@@H](CC(C)C)C(=O)N[C@@H](Cc1c[nH]cn1)C(N)=O)[C@@H](C)O) [CXCR-4 receptor Compound No. 43]    70.8
Palmitoyl-KKLRSMTDKYRLHLSV-NH2 (SMILES CCCCCCCCCCCCCCCC(=O)N[C@@H](CCCCN)C(=O)N[C@@H](CCCCN)C(=O)N[C@@H](CC(C)C)C(=O)N[C@@H](CCCNC(=N)N)C(=O)N[C@@H](CO)C(=O)N[C@@H](CCSC)C(=O)N[C@H](C(=O)N[C@@H](CC(=O)O)C(=O)N[C@@H](CCCCN)C(=O)N[C@@H](Cc1ccc(O)cc1)C(=O)N[C@@H](CCCNC(=N)N)C(=O)N[C@@H](CC(C)C)C(=O)N[C@@H](Cc1c[nH]cn1)C(=O)N[C@@H](CC(C)C)C(=O)N[C@@H](CO)C(=O)N[C@H](C(N)=O)C(C)C)[C@@H](C)O) [CXCR4 i1 loop compound 41]    51.7

Working through the 2 binders below one at a time, give AUC (% of), CHTX, SUP B-15, 1.0 uM for each.
1. Palmitoyl-KKLRSMTDKY-NH2 (SMILES CCCCCCCCCCCCCCCC(=O)N[C@@H](CCCCN)C(=O)N[C@@H](CCCCN)C(=O)N[C@@H](CC(C)C)C(=O)N[C@@H](CCCNC(=N)N)C(=O)N[C@@H](CO)C(=O)N[C@@H](CCSC)C(=O)N[C@H](C(=O)N[C@@H](CC(=O)O)C(=O)N[C@@H](CCCCN)C(=O)N[C@@H](Cc1ccc(O)cc1)C(N)=O)[C@@H](C)O) [CXCR4 i1 loop compound 46]
2. Palmitoyl-KKLRSMTDKYRLHL-NH2 (SMILES CCCCCCCCCCCCCCCC(=O)N[C@@H](CCCCN)C(=O)N[C@@H](CCCCN)C(=O)N[C@@H](CC(C)C)C(=O)N[C@@H](CCCNC(=N)N)C(=O)N[C@@H](CO)C(=O)N[C@@H](CCSC)C(=O)N[C@H](C(=O)N[C@@H](CC(=O)O)C(=O)N[C@@H](CCCCN)C(=O)N[C@@H](Cc1ccc(O)cc1)C(=O)N[C@@H](CCCNC(=N)N)C(=O)N[C@@H](CC(C)C)C(=O)N[C@@H](Cc1c[nH]cn1)C(=O)N[C@@H](CC(C)C)C(N)=O)[C@@H](C)O) [CXCR4 i1 loop compound 42]

Data returned:
1. 87.2
2. 43.8
